# Assay target: human carbonic anhydrase 9 (CAIX) (human, UniProt Q16790 38-459)
# Run description: FACS competition on HT-29 cells against tracer 3BP-2776; pIC50 category A = pIC50 >8.0
Starred links: 1 amine or outer side, 2 acyl side, 3 side chain; linkers in the order of their positions; H or OH if unused. Positions of bridges follow the written chain, without caps; N, C: chain ends. Non-standard residues stand in square brackets, D forms with d. mXylylene = c1cc(C[*:1])cc(C[*:2])c1; Sar = CNCC(=O)O
Measurement label: pIC50

[
  {
    "Binder": "Ac-VFCE[dP]DWLTWEC-NH2 (linker 3-12 via mXylylene; not fully specified (residue 11); also: indium complexed by DOTA, also called Ac-Val-Phe-[Cys(3MeBn)-Glu-pro-Asp-Trp-Leu-Thr-Trp-Glu(NH-Apr-O2Oc-InDOTA′)-Cys]-NH2) [3BP-3844]",
    "Assay result": "> 8 pic50"
  },
  {
    "Binder": "Ac-VYCE[Sar]DWLTWQC-NH2 (linker 3-12 via mXylylene; SMILES CC(=O)N[C@H](C(=O)N[C@@H](Cc1ccc(O)cc1)C(=O)N[C@H]1CSCc2cccc(c2)CSC[C@@H](C(N)=O)NC(=O)[C@H](CCC(N)=O)NC(=O)[C@H](Cc2c[nH]c3ccccc23)NC(=O)[C@H]([C@@H](C)O)NC(=O)[C@H](CC(C)C)NC(=O)[C@H](Cc2c[nH]c3ccccc23)NC(=O)[C@H](CC(=O)O)NC(=O)CN(C)C(=O)[C@H](CCC(=O)O)NC1=O)C(C)C, also called Ac-Val-Tyr-[Cys(3MeBn)-Glu-Nmg-Asp-Trp-Leu-Thr-Trp-Gln-Cys]-NH2) [3BP-3060]",
    "Assay result": "> 8 pic50"
  }
]
